I'd appreciate it if you could supply kinase still bound, per cent of control values for the items below.
Biological target: AURKC (human)
Test: KINOMEscan competition binding
Details: compound 10.0 µM
Give bare numbers, in %.

Below are worked cases with known answers.
1) C=CC(=O)Nc1cccc(Oc2nc(Nc3ccc(N4CCN(C)CC4)cc3OC)ncc2Cl)c1	4.5
2) CCC(=O)N1CCN(c2ccc(-n3c(=O)ccc4cnc5ccc(-c6cnc7ccccc7c6)cc5c43)cc2C(F)(F)F)CC1	91
3) COc1cc(C(=O)NC2CCN(C)CC2)ccc1Nc1ncc2c(n1)N(C1CCCC1)C(C)CC(=O)N2C (centres undefined)	100
4) O=C1Nc2ccc(I)cc2/C1=C/c1cc(Br)c(O)c(Br)c1	71
5) CCN1CCN(Cc2ccc(Nc3ncc4c(n3)N(C)c3ccccc3C(=O)N4C)cc2C(F)(F)F)CC1	8.7
6) O=C(NC1CC1)c1cccc(-c2ccc3c(NC(=O)C4CC4)n[nH]c3c2)c1	8.6
7) O=C(NOC[C@H](O)CO)c1ccc(F)c(F)c1Nc1ccc(I)cc1F	45
8) C=CC(=O)Nc1cc(NC(=O)c2ccc(C)c(NC(=O)c3ccno3)c2)cc(C(F)(F)F)c1	100

IN: Please report kinase still bound, per cent of control for the following compound: `Cn1c(=O)n(-c2ccc(C(C)(C)C#N)cc2)c2c3cc(-c4cnc5ccccc5c4)ccc3ncc21`
OUT: 100

* * *

Molecular target: CAMK2B (human) (UniProt Q13554)
Sequence (Q13554 whole entry, looked up): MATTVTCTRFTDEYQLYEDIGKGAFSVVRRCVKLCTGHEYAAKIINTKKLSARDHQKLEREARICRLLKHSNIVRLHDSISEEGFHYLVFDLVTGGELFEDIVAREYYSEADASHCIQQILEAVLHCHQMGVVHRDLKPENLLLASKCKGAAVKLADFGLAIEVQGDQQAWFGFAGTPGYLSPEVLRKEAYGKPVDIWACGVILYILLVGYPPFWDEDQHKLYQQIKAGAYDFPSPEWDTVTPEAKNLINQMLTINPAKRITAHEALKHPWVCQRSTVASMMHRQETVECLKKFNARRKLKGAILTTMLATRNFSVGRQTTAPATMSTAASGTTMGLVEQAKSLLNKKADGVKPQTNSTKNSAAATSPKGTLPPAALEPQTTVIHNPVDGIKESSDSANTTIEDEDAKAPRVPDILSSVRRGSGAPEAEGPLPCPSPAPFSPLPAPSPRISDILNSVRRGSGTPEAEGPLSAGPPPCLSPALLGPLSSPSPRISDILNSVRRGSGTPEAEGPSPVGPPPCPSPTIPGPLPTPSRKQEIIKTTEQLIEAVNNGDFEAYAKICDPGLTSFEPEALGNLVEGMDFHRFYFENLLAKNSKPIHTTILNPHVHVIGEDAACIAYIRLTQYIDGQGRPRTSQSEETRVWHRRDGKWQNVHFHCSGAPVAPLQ
Assay: KINOMEscan competition binding
Conditions: compound 10.0 µM
measured metric: kinase still bound, per cent of control (%)
Answers are plain numbers, in %.

Below are worked cases with known answers.
1) Cn1c(=O)n(-c2ccc(C(C)(C)C#N)cc2)c2c3cc(-c4cnc5ccccc5c4)ccc3ncc21	100
2) C=CC(=O)Nc1cccc(Nc2nc(N[C@H]3CC[C@H](N(C)C)CC3)nc3c2ncn3C(C)C)c1	80
3) O=C(NOC[C@H](O)CO)c1ccc(F)c(F)c1Nc1ccc(I)cc1F	100
4) Cc1cc([C@@H](C)Nc2ccccc2C(=O)O)c2nc(N3CCOCC3)cc(=O)n2c1	83
5) O=C(O)c1ccc(Nc2ncc3c(n2)-c2ccc(Cl)cc2C(c2c(F)cccc2F)=NC3)cc1	71

For each of the items listed, what is its kinase still bound, per cent of control?
1. Cc1ccc(C(=O)Nc2cccc(C(F)(F)F)c2)cc1Nc1cncc(C(N)=O)c1
2. COc1cc(N2CCN(C)CC2)ccc1Nc1nc(N)c(C(=O)c2c(Cl)cccc2Cl)s1

OUT:
[100, 20]

* * *

I'd appreciate it if you could supply kinase still bound, per cent of control values for the items below.
Test system: FLT3 (human), P36888 [K663Q]
Test: KINOMEscan competition binding
Conditions: compound 10.0 µM

Below are worked cases with known answers.
1. O=c1cc(N2CCOCC2)oc2c(-c3cccc4c3sc3ccccc34)cccc12	86%
2. C=CC(=O)Nc1cccc(Oc2nc(Nc3ccc(N4CCN(C)CC4)cc3OC)ncc2Cl)c1	1.1%
3. CCN(CCO)CCCOc1ccc2c(Nc3cc(CC(=O)Nc4cccc(F)c4)[nH]n3)ncnc2c1	1%

For each of the items listed, what is its kinase still bound, per cent of control?
1. C=CC(=O)Nc1cc(NC(=O)c2ccc(C)c(NC(=O)c3ccno3)c2)cc(C(F)(F)F)c1
2. CNC(=O)c1cc(Oc2ccc(NC(=O)Nc3ccc(Cl)c(C(F)(F)F)c3)cc2)ccn1
3. Cn1c(=O)n(-c2ccc(C(C)(C)C#N)cc2)c2c3cc(-c4cnc5ccccc5c4)ccc3ncc21
4. COc1cc(N2CCN(C)CC2)ccc1Nc1ncc2c(n1)N(C)c1ccccc1C(=O)N2C
5. C=CC(=O)Nc1cccc(Nc2nc(N[C@H]3CC[C@H](N(C)C)CC3)nc3c2ncn3C(C)C)c1
6. CCC(=O)N1CCN(c2ccc(-n3c(=O)ccc4cnc5ccc(-c6cnc7ccccc7c6)cc5c43)cc2C(F)(F)F)CC1
7. Cc1ccc(NC(=O)c2cccc(C(C)(C)C#N)c2)cc1Nc1ccc2ncn(C)c(=O)c2c1
8. COc1cc(N2CCC(C(N)=O)CC2)ccc1Nc1nc(N)c(Cl)c(Nc2ccccc2S(=O)(=O)C(C)C)n1

OUT:
["100%", "0.5%", "100%", "100%", "1.2%", "23%", "22%", "100%"]

* * *

Molecular target: RIOK3 (human)
Experiment: KINOMEscan competition binding
Conditions: compound 10.0 µM
I'd appreciate it if you could supply kinase still bound, per cent of control values for the items below.
One number for each entry, in %.

Below are worked cases with known answers.
1) COc1cc(C(=O)NC2CCN(C)CC2)ccc1Nc1ncc2c(n1)N(C1CCCC1)CCC(=O)N2C(C)C	100
2) O=C(NOC[C@H](O)CO)c1ccc(F)c(F)c1Nc1ccc(I)cc1F	100
3) Cc1cc([C@@H](C)Nc2ccccc2C(=O)O)c2nc(N3CCOCC3)cc(=O)n2c1	100
4) C=CC(=O)Nc1cccc(Oc2nc(Nc3ccc(N4CCN(C)CC4)cc3OC)ncc2Cl)c1	20
5) CCOc1cc2ncc(C#N)c(Nc3ccc(OCc4ccccn4)c(Cl)c3)c2cc1NC(=O)/C=C/CN(C)C	97

For each of the items listed, what is its kinase still bound, per cent of control?
1. C=CC(=O)Nc1cccc(Nc2nc(N[C@H]3CC[C@H](N(C)C)CC3)nc3c2ncn3C(C)C)c1
2. CC[C@@H]1C(=O)N(C)c2cnc(Nc3ccc(C(=O)NC4CCN(C)CC4)cc3OC)nc2N1C1CCCC1

OUT:
[34, 100]

For each of the items listed, what is its kinase still bound, per cent of control?
1. O=C1Nc2ccc(I)cc2/C1=C/c1cc(Br)c(O)c(Br)c1
2. Nc1ccc(-c2ccc3ncc4ccc(=O)n(-c5cccc(C(F)(F)F)c5)c4c3c2)cn1
3. Cn1c(=O)n(-c2ccc(C(C)(C)C#N)cc2)c2c3cc(-c4cnc5ccccc5c4)ccc3ncc21
4. N#Cc1c(NC(=O)c2cccc3ccccc23)sc2c1CCCC2

OUT:
1. 17
2. 100
3. 100
4. 100

For each of the items listed, what is its kinase still bound, per cent of control?
1. Cc1ccc(C(=O)Nc2cccc(C(F)(F)F)c2)cc1Nc1cncc(C(N)=O)c1
2. CCC(=O)N1CCN(c2ccc(-n3c(=O)ccc4cnc5ccc(-c6cnc7ccccc7c6)cc5c43)cc2C(F)(F)F)CC1

OUT:
1: 100; 2: 90

For each of the items listed, what is its kinase still bound, per cent of control?
1. CCN1CCN(Cc2ccc(Nc3ncc4c(n3)N(C)c3ccccc3C(=O)N4C)cc2C(F)(F)F)CC1
2. C=CC(=O)Nc1cc(NC(=O)c2ccc(C)c(NC(=O)c3ccno3)c2)cc(C(F)(F)F)c1
3. COc1cc(C(=O)NC2CCN(C)CC2)ccc1Nc1ncc2c(n1)N(C1CCCC1)C(C)CC(=O)N2C (centres undefined)
4. OCCCNc1cc(-c2ccnc(Nc3cccc(Cl)c3)n2)ccn1
5. COc1cc(N2CCN(C)CC2)ccc1Nc1nc(N)c(C(=O)c2c(Cl)cccc2Cl)s1
6. CCCS(=O)(=O)Nc1ccc(F)c(C(=O)c2c[nH]c3ncc(-c4ccc(Cl)cc4)cc23)c1F

OUT:
1. 38
2. 76
3. 100
4. 100
5. 100
6. 100

* * *

Target: MAP2K4 (human) (UniProt P45985)
Sequence (P45985 whole entry, looked up): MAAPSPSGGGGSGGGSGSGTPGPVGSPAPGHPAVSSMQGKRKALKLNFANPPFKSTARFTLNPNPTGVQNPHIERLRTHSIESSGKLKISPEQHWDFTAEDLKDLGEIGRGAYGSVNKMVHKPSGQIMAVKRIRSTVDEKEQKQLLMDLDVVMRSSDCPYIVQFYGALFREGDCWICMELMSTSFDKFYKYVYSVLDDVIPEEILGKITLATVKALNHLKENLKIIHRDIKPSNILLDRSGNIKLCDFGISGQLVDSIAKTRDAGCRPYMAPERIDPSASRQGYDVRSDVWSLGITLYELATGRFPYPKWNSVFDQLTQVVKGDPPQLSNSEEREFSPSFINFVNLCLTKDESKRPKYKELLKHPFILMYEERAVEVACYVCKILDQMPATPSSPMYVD
Experiment: KINOMEscan competition binding
Settings: compound 10.0 µM
I'd appreciate it if you could supply kinase still bound, per cent of control values for the items below.
Numbers only, in %.

Below are worked cases with known answers.
1) COc1cc(N2CCN(C)CC2)ccc1Nc1nc(N)c(C(=O)c2c(Cl)cccc2Cl)s1	70
2) O=C(NC1CC1)c1cccc(-c2ccc3c(NC(=O)C4CC4)n[nH]c3c2)c1	66
3) OCCCNc1cc(-c2ccnc(Nc3cccc(Cl)c3)n2)ccn1	100
4) Cc1ccc(C(=O)Nc2cccc(C(F)(F)F)c2)cc1Nc1cncc(C(N)=O)c1	100
5) Cc1ccc(NC(=O)c2cccc(C(C)(C)C#N)c2)cc1Nc1ccc2ncn(C)c(=O)c2c1	100

IN: Please report kinase still bound, per cent of control for the following compound: `CC[C@@H]1C(=O)N(C)c2cnc(Nc3ccc(C(=O)NC4CCN(C)CC4)cc3OC)nc2N1C1CCCC1`
OUT: 100

* * *

Biological target: CAMK2D (human)
Experiment: KINOMEscan competition binding
Details: compound 10.0 µM
measured metric: kinase still bound, per cent of control
// return the numeric value with its unit appended

Below are worked cases with known answers.
1. O=C1Nc2ccc(I)cc2/C1=C/c1cc(Br)c(O)c(Br)c1	41%
2. COc1cc(N2CCN(C)CC2)ccc1Nc1nc(N)c(C(=O)c2c(Cl)cccc2Cl)s1	23%
3. CCN1CCN(Cc2ccc(Nc3ncc4c(n3)N(C)c3ccccc3C(=O)N4C)cc2C(F)(F)F)CC1	69%
4. CCC(=O)N1CCN(c2ccc(-n3c(=O)ccc4cnc5ccc(-c6cnc7ccccc7c6)cc5c43)cc2C(F)(F)F)CC1	72%

For each of the items listed, what is its kinase still bound, per cent of control?
1. O=C(O)c1ccc(Nc2ncc3c(n2)-c2ccc(Cl)cc2C(c2c(F)cccc2F)=NC3)cc1
2. CC[C@@H]1C(=O)N(C)c2cnc(Nc3ccc(C(=O)NC4CCN(C)CC4)cc3OC)nc2N1C1CCCC1
3. Cc1ccc2nc(NCCN)c3ncc(C)n3c2c1
4. Nc1ccc(-c2ccc3ncc4ccc(=O)n(-c5cccc(C(F)(F)F)c5)c4c3c2)cn1
5. Cn1c(=O)n(-c2ccc(C(C)(C)C#N)cc2)c2c3cc(-c4cnc5ccccc5c4)ccc3ncc21

OUT:
95%
100%
100%
85%
100%
